Values were extracted from patent US20080171737A1.

- testedTarget: human hNET (Homo sapiens)
- Construct: expressed in transfected cells; host or cells: MDCK-Net6 (MDCK cells stably transfected with hNET)
- Sequence (P23975 whole entry): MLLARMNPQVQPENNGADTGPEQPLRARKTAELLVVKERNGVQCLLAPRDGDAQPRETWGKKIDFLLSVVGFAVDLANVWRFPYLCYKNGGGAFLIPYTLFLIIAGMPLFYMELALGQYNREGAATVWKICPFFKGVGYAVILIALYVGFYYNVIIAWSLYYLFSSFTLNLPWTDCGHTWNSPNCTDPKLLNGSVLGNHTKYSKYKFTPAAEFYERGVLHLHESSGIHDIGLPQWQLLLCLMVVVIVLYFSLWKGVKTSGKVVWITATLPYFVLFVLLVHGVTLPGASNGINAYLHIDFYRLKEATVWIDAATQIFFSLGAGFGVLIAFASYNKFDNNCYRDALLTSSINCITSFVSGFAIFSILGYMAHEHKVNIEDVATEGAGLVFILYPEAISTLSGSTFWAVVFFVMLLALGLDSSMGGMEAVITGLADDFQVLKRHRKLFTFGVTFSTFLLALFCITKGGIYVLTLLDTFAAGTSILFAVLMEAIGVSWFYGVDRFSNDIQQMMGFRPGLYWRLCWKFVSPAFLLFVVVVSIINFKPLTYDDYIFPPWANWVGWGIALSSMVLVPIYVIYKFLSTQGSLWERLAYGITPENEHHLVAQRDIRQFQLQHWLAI
- testMethodNotes: Functional norepinephrine reuptake assay, Procedure B (6,000 cells/well)
- Format: cell-based
- appliedConditions: MDCK-Net6 cells, 6,000 cells/well, 16 nM 3H-norepinephrine; read-out: Procedure B hNET uptake IC50
Structures can show the parent of a compound that is named as a salt.
readoutLabel: pIC50
Scale: negative log10 of molar concentration, which is what pIC50 denotes.

Guide cases for pIC50, answers given:
INSERT INTO assay_data (compound, recordedvalue) VALUES
  ('CNCCCC1Sc2ccccc2N(c2ccc(F)c(Cl)c2)S1(=O)=O (centres unmarked) [Example 68, Hydrochloride]', 6.33),
  ('CNCCCC1Oc2cccc(C)c2N(c2ccccc2)S1(=O)=O (centres unmarked) [Example 49]', 6.05),
  ('CNCC[C@H]1Oc2ccccc2N(c2ccccc2)S1(=O)=O (single isomer, unassigned) [Example 104]', 6.52);

Given the entry CNCCCC1Oc2cc(C)ccc2N(c2ccccc2)S1(=O)=O (centres unmarked) [Example 51] , report its measured pIC50.
6.60

What do you have for CNCCCC1Sc2ccccc2N(c2cccc(F)c2)S1(=O)=O (centres unmarked) [Example 61, hydrochloride] ?
7.09

Entry CNCCCC1Oc2ccccc2N(c2cccc(C)c2)S1(=O)=O (centres unmarked) [Example 16] please
6.44

// same read-out, input: CNCCCC1Sc2ccccc2N(c2cccc(C)c2)S1(=O)=O (centres unmarked) [Example 60, Hydrochloride]
6.33

What do you get for CNCCC[C@H]1Cc2ccccc2N(c2ccc(F)cc2F)S1(=O)=O (single isomer, unassigned) [Example 100] ?
6.46

And then CNCCCC1Oc2ccccc2N(c2cccc(OC)c2)S1(=O)=O (centres unmarked) [Example 18] , what is it?
6.45

Then this compound: CNCCC[C@H]1Oc2cc(F)ccc2N(c2ccccc2)S1(=O)=O (single isomer, unassigned) [Example 106]
7.01

Query CNCCC[C@H]1Cc2cc(F)ccc2N(c2ccccc2Cl)S1(=O)=O (single isomer, unassigned) [Example 158] next
6.84

Follow-up item: CN(C)CC1Oc2ccccc2N(c2ccccc2)S1(=O)=O (centres unmarked) [Example 134]
6.10

###

Consider the following compounds and their measured log10 IC50 readings.
- testedTarget: human hNET (Homo sapiens)
- Construct: expressed in transfected cells; host or cells: MDCK-Net6 (MDCK cells stably transfected with hNET)
- testMethodNotes: Functional norepinephrine reuptake assay, Procedure B (6,000 cells/well)
- Assay type: cell-based
- appliedConditions: MDCK-Net6 cells, 6,000 cells/well, 16 nM 3H-norepinephrine; read-out: Procedure B hNET uptake IC50
Structures can show the parent of a compound that is named as a salt.
Heads up: the numbers are on a log10 scale; they represent IC50 in nM.

Please review the entries below; each comes with its answer.
INSERT INTO assay_data (compound, testedtarget, readoutlabel, recordedvalue) VALUES
  ('CNCCC[C@@H]1Cc2cc(F)ccc2N(c2cc(F)ccc2F)S1(=O)=O (single isomer, unassigned)', 'human hNET (Homo sapiens)', 'log10 IC50', 1.63),
  ('CNCCCC1Sc2ccccc2N(c2cccc(OC)c2)S1(=O)=O (stereo not shown) [Example 62, Hydrochloride]', 'human hNET (Homo sapiens)', 'log10 IC50', 2.53),
  ('CNCCC[C@@H]1Oc2cc(F)ccc2N(c2ccccc2F)S1(=O)=O (single isomer, unassigned) [Example 130, Hydrochloride]', 'human hNET (Homo sapiens)', 'log10 IC50', 1.65);

Quick one: log10 IC50 of CNCCCC1Cc2cc(F)ccc2N(c2ccc(F)cc2C)S1(=O)=O (racemic) ?
1.98

Same question for CNCCC[C@@H]1Cc2ccccc2N(c2cccnc2)S1(=O)=O (single isomer, unassigned) please.
2.38

Now consider CNCCC[C@H]1Cc2cc(F)ccc2N(c2ccc(F)cc2F)S1(=O)=O (single isomer, unassigned) .
2.00

Same read-out for CCCCNCCC1Oc2ccccc2N(c2ccccc2)S1(=O)=O (stereo not shown) ?
3.22

Same lookup for CNCCC[C@H]1Cc2ccccc2N(c2ccccc2F)S1(=O)=O (single isomer, unassigned) [Example 90] , please.
1.77

Could you do the same for CNCCCC1Oc2ccc(F)cc2N(c2ccccc2)S1(=O)=O (stereo not shown) , please?
2.94

// query: CNCCCC1Cc2cc(F)ccc2N(c2ccccc2C#N)S1(=O)=O (racemic)
2.28

Can you check CNCCCC1Cc2cc(Cl)ccc2N(c2ccccc2F)S1(=O)=O (stereo not shown) next?
1.62

Please answer likewise for CNCCC[C@H]1Cc2cc(Cl)ccc2N(c2ccccc2F)S1(=O)=O (single isomer, unassigned)
1.30

Could you do the same for CNCCCC1Sc2ccccc2N(c2ccccc2)S1(=O)=O (stereo not shown) [Example 59, Hydrochloride] , please?
2.09

What do you have for CNCCC[C@@H]1Cc2ccccc2N(c2ccccc2F)S1(=O)=O (single isomer, unassigned) [Example 75] ?
0.57

Would you mind doing CNCCCC1Cc2ccccc2N(c2ccccn2)S1(=O)=O (racemic) as well?
1.99

Field entry: CN(C)CCCC1Oc2ccccc2N(c2ccccc2)S1(=O)=O (stereo not shown) [Example 80, hydrochloride]
3.62
